Let's look at some compounds and their measured MIC50.
- Test system: E coli carrying specific resistance determinants
- assayName: MIC by broth microdilution, E coli carrying specific resistance determinants
- Assay type: cell-based
- conditionSummary: Escherichia coli, read-out: MIC50 E coli AG037 APH(3′)-III, AG037 APH(3′)-III; Table 2B (Example 2)

Example entries and their recorded answers appear below.
INSERT INTO results (compound, reportedproperty, reportedresult) VALUES
  ('CC1CC(O)C2O[C@H](O[C@@H]3C(N)C[C@@H](N)C(O)[C@H]3O[C@@H]3O[C@H](CO)[C@H](O[C@H]4O[C@@H](CN)[C@@H](O)C(O)C4N)C3O)C(N)[C@@H](O)[C@@H]2O1 (stereo partly shown)', 'MIC50', '16 µg/mL'),
  ('CC1CC(N)C2O[C@H](O[C@@H]3C(N)C[C@@H](N)C(O)[C@H]3O[C@@H]3O[C@H](CO)[C@H](O[C@H]4O[C@@H](CN)[C@@H](O)C(O)C4N)C3O)C(N)[C@@H](O)[C@@H]2O1 (stereo partly shown)', 'MIC50', '8 to 16 µg/mL'),
  ('NC[C@@H]1O[C@H](O[C@H]2[C@@H](O)[C@H](O[C@@H]3[C@@H](O)[C@H](N)C[C@H](N)[C@H]3O[C@H]3O[C@H](CO)[C@@H](O)[C@H](O)[C@H]3N)O[C@@H]2CO)[C@H](N)[C@@H](O)[C@@H]1O [paromomycin, reference compound]', 'MIC50', '> 128 µg/mL');

Proceeding to the next compound to report its MIC50.
-- ask Return reported MIC50. Input compound: CC(C)(O)C1O[C@H](O[C@@H]2C(N)C[C@@H](N)C(O)[C@H]2O[C@@H]2O[C@H](CO)[C@H](O[C@H]3O[C@@H](CN)[C@@H](O)C(O)C3N)C2O)C(N)[C@@H](O)[C@@H]1O (stereo partly shown)
-- reply > 64 µg/mL
